Items are presented alongside their recorded IC50.
assayed-target: FGFR1 (Homo sapiens, UniProt P11362)
Sequence (P11362 478-767 limits assumed): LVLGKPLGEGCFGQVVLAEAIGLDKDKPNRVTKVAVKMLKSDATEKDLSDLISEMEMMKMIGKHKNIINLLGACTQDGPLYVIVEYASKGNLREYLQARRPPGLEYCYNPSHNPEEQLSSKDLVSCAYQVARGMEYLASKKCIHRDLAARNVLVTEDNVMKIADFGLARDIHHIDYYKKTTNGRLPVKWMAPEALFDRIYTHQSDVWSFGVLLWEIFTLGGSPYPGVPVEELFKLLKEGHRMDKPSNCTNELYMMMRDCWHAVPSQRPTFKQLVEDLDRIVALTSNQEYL
protocol-summary: Kinase IC50, 33P labeled isotope method
Type: biochemical
assay-conditions: 20 μM ATP; read-out: IC50* FGFR1
property-label: IC50

structure-string: Cc1cc2c(Nc3c[nH]nc3C(=O)Nc3ccc(CN4CCN(C)CC4)cc3)ncnc2[nH]1
property-label: IC50
recorded-result: 305 nM

structure-string: CN1CCN(Cc2ccc(NC(=O)c3n[nH]cc3Nc3ncnc4occc34)cc2)CC1
property-label: IC50
recorded-result: 335 nM

structure-string: Cc1cc2c(Nc3c[nH]nc3C(=O)Nc3ccc(CN4CCN(C)CC4)cc3)nccc2s1
property-label: IC50
recorded-result: 316 nM

structure-string: Cc1cc2c(Nc3c[nH]nc3C(=O)Nc3ccc(CN4CCN(C)CC4)cc3)ncnc2s1
property-label: IC50
recorded-result: 274 nM

structure-string: CN1CCN(Cc2ccc(NC(=O)c3n[nH]cc3Nc3ncnc4sccc34)cc2)CC1
property-label: IC50
recorded-result: 304 nM

###

assayed-target: CDK2/cyclin A (Homo sapiens)
protocol-summary: Kinase IC50, 33P labeled isotope method
Type: biochemical
property-label: IC50

compound: CN1CCN(Cc2ccc(NC(=O)c3n[nH]cc3Nc3ncnc4sccc34)cc2)CC1 [Compound I-1]
recorded-result: 15 nM
--
compound: CN1CCN(Cc2ccc(NC(=O)c3n[nH]cc3Nc3ncnc4[nH]ccc34)cc2)CC1 [Compound I-11]
recorded-result: 13 nM

###

assayed-target: CDK7/cyclin H (Homo sapiens, UniProt P50613)
Sequence (P50613 12-295 limits assumed): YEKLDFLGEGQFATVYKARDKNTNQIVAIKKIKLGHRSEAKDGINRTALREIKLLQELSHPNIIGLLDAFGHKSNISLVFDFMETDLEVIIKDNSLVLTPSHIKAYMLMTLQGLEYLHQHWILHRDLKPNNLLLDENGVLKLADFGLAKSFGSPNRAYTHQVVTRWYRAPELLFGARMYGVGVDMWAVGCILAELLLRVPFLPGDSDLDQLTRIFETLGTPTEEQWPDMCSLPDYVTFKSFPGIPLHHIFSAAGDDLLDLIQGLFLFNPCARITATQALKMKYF
Sequence (P51946 whole entry partner): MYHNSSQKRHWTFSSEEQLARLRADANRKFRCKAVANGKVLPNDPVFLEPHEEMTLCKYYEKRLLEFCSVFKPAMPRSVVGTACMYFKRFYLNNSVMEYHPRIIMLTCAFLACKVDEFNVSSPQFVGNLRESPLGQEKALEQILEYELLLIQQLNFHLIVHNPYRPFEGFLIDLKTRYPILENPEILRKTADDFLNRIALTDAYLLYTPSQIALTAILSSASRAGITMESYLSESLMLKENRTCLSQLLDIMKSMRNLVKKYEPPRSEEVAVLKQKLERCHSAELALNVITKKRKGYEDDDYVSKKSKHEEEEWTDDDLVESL
Sequence (P51948 whole entry partner): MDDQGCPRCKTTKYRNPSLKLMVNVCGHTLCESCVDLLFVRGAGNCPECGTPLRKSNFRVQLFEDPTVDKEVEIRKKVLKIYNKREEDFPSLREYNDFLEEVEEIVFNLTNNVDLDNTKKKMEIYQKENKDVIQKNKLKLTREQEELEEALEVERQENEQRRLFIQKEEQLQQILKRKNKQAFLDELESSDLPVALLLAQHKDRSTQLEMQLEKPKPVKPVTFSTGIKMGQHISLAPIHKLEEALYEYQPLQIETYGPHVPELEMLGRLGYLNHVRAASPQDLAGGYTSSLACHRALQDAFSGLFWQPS
protocol-summary: Kinase IC50, 33P labeled isotope method
Type: biochemical
property-label: IC50 (nM)

molecule: CN1CCN(Cc2ccc(NC(=O)c3n[nH]cc3Nc3ncnc4[nH]ccc34)cc2)CC1 [Compound I-11]
assayed-target: CDK7/cyclin H (Homo sapiens, UniProt P50613)
property-label: IC50
recorded-result: 471

###

assayed-target: CDK2/cyclin A (Homo sapiens, UniProt P24941)
protocol-summary: Kinase IC50, 33P labeled isotope method
Assay type: biochemical
assay-conditions: 20 μM ATP; read-out: IC50* CDK2/cyclin A
pIC50: −log10 of the molar value.

molecule: Cc1cc2c(Nc3c[nH]nc3C(=O)Nc3ccc(CN4CCN(C)CC4)cc3)ncnc2[nH]1 [Compound I-13]
pIC50: 7.82
//
molecule: CN1CCN(Cc2ccc(NC(=O)c3n[nH]cc3Nc3ncnc4occc34)cc2)CC1 [Compound I-21]
pIC50: 7.77
//
molecule: Cc1cc2c(Nc3c[nH]nc3C(=O)Nc3ccc(CN4CCN(C)CC4)cc3)ncnc2s1 [Compound I-3]
pIC50: 7.85
//
molecule: Cc1cc2c(Nc3c[nH]nc3C(=O)Nc3ccc(CN4CCN(C)CC4)cc3)nccc2s1 [Compound I-27]
pIC50: 7.80

###

assayed-target: Aurora A (Homo sapiens)
Construct: purchased
Sequence (O14965 1-403): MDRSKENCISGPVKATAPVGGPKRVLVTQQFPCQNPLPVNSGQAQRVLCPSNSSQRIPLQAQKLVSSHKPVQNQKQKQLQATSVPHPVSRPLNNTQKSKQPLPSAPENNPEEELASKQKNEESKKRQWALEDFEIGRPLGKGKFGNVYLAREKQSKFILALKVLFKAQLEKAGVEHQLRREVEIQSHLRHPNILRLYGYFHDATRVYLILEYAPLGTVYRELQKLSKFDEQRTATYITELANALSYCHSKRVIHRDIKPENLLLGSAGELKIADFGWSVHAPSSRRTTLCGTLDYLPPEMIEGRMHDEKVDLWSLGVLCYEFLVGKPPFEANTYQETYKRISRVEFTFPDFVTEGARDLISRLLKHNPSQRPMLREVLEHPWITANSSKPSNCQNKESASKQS
protocol-summary: Inhibitory activity to Aurora A (FRET)
Format: biochemical
assay-conditions: read-out: Aurora A inhibition % (1 × 10^−6 mol/L)
Items are presented alongside their recorded inhibition at 1 µM.
property-label: inhibition at 1 µM (%)

molecule: CN1CCN(Cc2ccc(NC(=O)c3n[nH]cc3Nc3ncnc4ccoc34)cc2)CC1
recorded-result: 59.7

molecule: O=C(Nc1ccc(CN2CCOCC2)cc1)c1n[nH]cc1Nc1ccnc2ccoc12
recorded-result: 40.7

molecule: O=C(Nc1ccc(CN2CCOCC2)cc1)c1n[nH]cc1Nc1nccc2sccc12
recorded-result: 61.1

molecule: CN1CCN(Cc2ccc(NC(=O)c3n[nH]cc3Nc3ncnc4ccsc34)cc2)CC1
recorded-result: 67.6

molecule: O=C(Nc1ccc(CN2CCOCC2)cc1)c1n[nH]cc1Nc1ncnc2sccc12
recorded-result: 52.2

molecule: O=C(Nc1ccc(CN2CCOCC2)cc1)c1n[nH]cc1Nc1nccc2occc12
recorded-result: 50.5

molecule: O=C(Nc1c[nH]nc1-c1nc2ccc(CN3CCOCC3)cc2[nH]1)NC1CC1 [AT-9283, reference compound]
recorded-result: 77.4

molecule: CN1CCN(Cc2ccc(NC(=O)c3n[nH]cc3Nc3ccnc4occc34)cc2)CC1
recorded-result: 42.6

molecule: CN1CCN(Cc2ccc(NC(=O)c3n[nH]cc3Nc3ncnc4occc34)cc2)CC1
recorded-result: 60.8

molecule: Cc1cc2c(Nc3c[nH]nc3C(=O)Nc3ccc(CN4CCN(C)CC4)cc3)nccc2s1
recorded-result: 67.8

molecule: CN1CCN(Cc2ccc(NC(=O)c3n[nH]cc3Nc3ccnc4ccoc34)cc2)CC1
recorded-result: 42.1

molecule: Cc1cc2c(Nc3c[nH]nc3C(=O)Nc3ccc(CN4CCN(C)CC4)cc3)ncnc2[nH]1
recorded-result: 60.8

molecule: Cc1cc2c(Nc3c[nH]nc3C(=O)Nc3ccc(CN4CCN(C)CC4)cc3)ncnc2s1
recorded-result: 75.2

molecule: O=C(Nc1ccc(CN2CCOCC2)cc1)c1n[nH]cc1Nc1nccc2ccsc12
recorded-result: 55.1

molecule: CN1CCN(Cc2ccc(NC(=O)c3n[nH]cc3Nc3ncnc4sccc34)cc2)CC1
recorded-result: 67.9

molecule: O=C(Nc1ccc(CN2CCOCC2)cc1)c1n[nH]cc1Nc1ncnc2occc12
recorded-result: 48.5

molecule: CN1CCN(Cc2ccc(NC(=O)c3n[nH]cc3Nc3ncnc4[nH]ccc34)cc2)CC1
recorded-result: 64.3
